Exercise: state measured CC50 at 24 h for each of the compounds provided.
Test: in vitro
Conditions: rat, gh3-tre-luc cells, AC50 (uM) modified / 1000

Entry N[C@@H](Cc1cc(I)c(Oc2cc(I)c(O)c(I)c2)c(I)c1)C(=O)O — recorded CC50 at 24 h = > 60 µM

Per the record, C1C[C@@H]2[C@H]3CC[C@H](C3)[C@@H]2C1 [Octahydro-exo-4,7-methano-1H-indene] has CC50 at 24 h of > 90 µM

Lookup result for O=C(Nc1ccc(Oc2ccc(Cl)cc2)c(Cl)c1)c1cc(I)cc(I)c1O [Rafoxanide] ; measured CC50 at 24 h: 36.2 µM

Entry O=C1[C@@H]2[C@H]3CC[C@H](C3)[C@@H]2C(=O)N1CCCCN1CCN(c2ncccn2)CC1 , CC50 at 24 h reported as > 50 µM

Query CN1CCN(C(=O)C2CCCCC2)CC1 yields CC50 at 24 h of > 50 µM

###

Test: in vitro
Settings: rat, gh3-tre-luc cells, AC50 (uM) modified / 1000, Tox21_110001=Tox21_113042; viability, 1 nM T3 present, 24 h
reported-property: CC50 at 24 h

Per the record, O=C(O)Cc1ccccc1 has CC50 at 24 h of > 50 µM

###

Test: in vitro
Details: rat, gh3-tre-luc cells, AC50 (uM) modified / 1000
Where a name gives a salt, the structure may show the parent alone.
Would you kindly list CC50 at 24 h for each of these compounds?

According to the records, this compound CC(C)(C)OCC1CO1 (stereo not drawn) displays CC50 at 24 h of > 90 µM

Please fill in: CC50 at 24 h reported for CC(C)(C)c1ccc(S)cc1 = > 90 µM

CC50 at 24 h reading for Nc1c(Cl)c(F)nc(OCC(=O)O)c1Cl : > 90 µM

Entry O=P(O)(O)OCC(O)CO (stereo not drawn) [Dipotassium glycerophosphate] — recorded CC50 at 24 h = > 50 µM

CC50 at 24 h in this record for CC1CC(=O)O1 (stereo not drawn) : > 100 µM

CC1=C(CC(=O)O)c2cc(F)ccc2/C1=C\c1ccc([S+](C)[O-])cc1 (stereo not drawn) has a reported CC50 at 24 h of > 90 µM

Form field CC50 at 24 h, entry Cc1ccsc1C(=CCCN1CCC[C@@H](C(=O)O)C1)c1sccc1C [Tiagabine hydrochloride] : > 50 µM

// CC50 at 24 h value for COc1nc(C)nc(N)n1 : > 90 µM

Entry under test: Oc1cccc(-c2c3nc(c(-c4cccc(O)c4)c4ccc([nH]4)c(-c4cccc(O)c4)c4nc(c(-c5cccc(O)c5)c5ccc2[nH]5)CC4)C=C3)c1 . Its CC50 at 24 h was 13.6 µM

###

Assay: GH3-TRE-Via cell viability, CellTiter-Fluor (TOX21_TR_LUC_GH3_Antagonist_viability, aeid 805)
Conditions: rat
Task for the reader: assign each of the following molecules its reported AC50 at 24 h.

Measured AC50 at 24 h, N[C@@H](Cc1cc(I)c(Oc2cc(I)c(O)c(I)c2)c(I)c1)C(=O)O [Levothyroxine, reference compound] : > 92 µM

AC50 at 24 h in this record for CCCCCOc1ccc(C2SC(=O)NC2=O)cc1OCC (stereo not shown) [Risarestat, reference compound] : > 92 µM

Item: CCCc1c(OCCCCc2nnn[nH]2)ccc(C(C)=O)c1O [Tomelukast, reference compound] | AC50 at 24 h: > 92 µM

AC50 at 24 h recorded for this molecule, Cc1ccc2c(Cl)cc(Cl)c(O)c2n1 [5,7-Dichloro-8-hydroxy-2-methylquinoline] , is 1.56 µM

###

Experiment: in vitro
Details: rat, gh3-tre-luc cells, AC50 (uM) modified / 1000, Tox21_110001=Tox21_201663; viability, 1 nM T3 present, 24 h
reported-property: CC50 at 24 h

The value of CC50 at 24 h measured for the compound CN(C)N=O [N-Nitrosodimethylamine] turned out to be > 90 µM

###

Please respond with reported active rate in Tox21 viability/cytotoxicity assays for every item in the list.
Test system: Tox21 cell viability assays (different cell types)
Test: Global cytotoxicity: eighteen Tox21 cell viability assays
Type: cell-based
A number alone suffices; assume %.

For record N#CC(c1ccc(Cl)cc1)c1c(Cl)cc(-n2ncc(=O)[nH]c2=O)cc1Cl (stereo not shown) the listed active rate in Tox21 viability/cytotoxicity assays is 33

Measured active rate in Tox21 viability/cytotoxicity assays of CC(C)C[C@H](NC(=O)[C@H](CCc1ccccc1)NC(=O)CN1CCOCC1)C(=O)N[C@@H](Cc1ccccc1)C(=O)N[C@@H](CC(C)C)C(=O)[C@@]1(C)CO1 : 64

Noted for Cc1cccc(Nc2ccccc2C(=O)O)c1C : its active rate in Tox21 viability/cytotoxicity assays reads 4.5

###

Task for the reader: assign each of the following compounds its reported CC50 at 24 h.
Experiment: in vitro
Details: rat, gh3-tre-luc cells, AC50 (uM) modified / 1000
Where a name gives a salt, the structure may show the parent alone.

Consider C[C@@H]1C[C@H]2[C@@H]3CCC4=CC(=O)C=C[C@]4(C)[C@@]3(F)[C@@H](O)C[C@]2(C)[C@@]1(O)C(=O)COC(=O)c1cccc(S(=O)(=O)O)c1 [Dexamethazone metasulfobenzoate sodium] . Its measured CC50 at 24 h is > 50 µM

CC50 at 24 h reported for this compound CC(C)[N+](C)(C)CC(O)COc1cccc2ccccc12 (centres unmarked) [Pranolium chloride] : > 50 µM

Measured CC50 at 24 h, O=C(NC(=O)c1c(F)cccc1F)Nc1cc(Cl)c(OC(F)(F)C(F)F)c(Cl)c1 [Hexaflumuron] : > 90 µM

Per the record, COC(=O)[C@@H]1CC2=CC(=O)CC[C@]2(C)[C@@]23O[C@@H]2C[C@@]2(C)[C@@H](CC[C@@]24CCC(=O)O4)[C@H]13 [Eplerenone] has CC50 at 24 h of > 50 µM

CC(=O)Oc1ccccc1C(=O)Nc1ncc([N+](=O)[O-])s1 [Nitazoxanide] yielded CC50 at 24 h of 23.7 µM

Entry under test: CCCOC(=O)NCCCN(C)C [Propamocarb hydrochloride] . Its CC50 at 24 h was > 90 µM

Record CCC(C)(C)C(=O)OC1=C(c2ccc(Cl)cc2Cl)C(=O)OC12CCCCC2 [Spirodiclofen] , field CC50 at 24 h: > 90 µM

According to the records, this compound O=C(CCCN1CCN(c2ccc(F)cc2)CC1)NC1c2ccccc2CSc2ccccc21 (centres unmarked) [Monatepil] displays CC50 at 24 h of 11.9 µM

The reported CC50 at 24 h of the compound C=C(C)C(=O)NCCCN(C)C was > 90 µM

Lookup result for CC(C)C=O [2-Methylpropanal] ; measured CC50 at 24 h: > 90 µM

CC50 at 24 h for CCCC(=O)c1cc(O)c(O)cc1O [2',4',5'-Trihydroxybutyrophenone] is > 90 µM

Sure, the documented CC50 at 24 h for CCc1ccc(C(=O)C(C)CN2CCCCC2)cc1 (centres unmarked) [Eperisone hydrochloride] is > 50 µM

Recorded result, CCCn1cc[n+](C)c1C [1,2-Dimethyl-3-propylimidazolium iodide] , CC50 at 24 h: > 90 µM

response.value for O=C(O)c1nn(Cc2ccc(Cl)cc2Cl)c2ccccc12 [Lonidamine] (field: CC50 at 24 h) = > 90 µM

Recorded CC50 at 24 h (compound CCCC1C(CC)=CC(CC)=CN1c1ccccc1 (centres unmarked) ): > 90 µM

// COc1ccc(-n2nc(C(F)F)cc2-c2ccc([S+](C)[O-])cc2)cc1 (centres unmarked) [Difpas-pyrazole] : CC50 at 24 h value = > 90 µM

Looking up CCCCC(=O)O[C@]1(C(=O)CO)CC[C@H]2[C@@H]3CCC4=CC(=O)CC[C@]4(C)[C@H]3[C@@H](O)C[C@@]21C [Hydrocortisone valerate] , I found its CC50 at 24 h recorded as > 50 µM

###

Experiment: in vitro
Conditions: rat, gh3-tre-luc cells, AC50 (uM) modified / 1000, Tox21_110001=Tox21_303031; viability, 1 nM T3 present, 24 h
reported-property: CC50 at 24 h (µM)
# output: bare number, implied unit µM

Quick note, CC50 at 24 h for O=C1C(Cl)=C(Cl)C(=O)c2ccccc21 landed at 7.73

###

Assay: in vitro
Settings: rat, gh3-tre-luc cells, AC50 (uM) modified / 1000, Tox21_110001=Tox21_300394; viability, 1 nM T3 present, 24 h
reported-property: CC50 at 24 h

Entry O=C(O)C(F)(F)C(F)(F)C(F)(F)C(F)(F)C(F)(F)F [Perfluorohexanoic acid] ; CC50 at 24 h = > 90 µM

###

Assay: in vitro
Conditions: rat, gh3-tre-luc cells, AC50 (uM) modified / 1000, Tox21_110001=Tox21_300700; viability, 1 nM T3 present, 24 h
reported-property: CC50 at 24 h

Reported CC50 at 24 h for COP(=S)(OC)Oc1nc(Cl)c(Cl)cc1Cl [Chlorpyrifos-methyl] was > 90 µM
